- Tested on: K562 (human chronic myelogenous leukemia) cells
- TEST DESCRIPTION: Cell Titer Glo 2.0 cell viability assay
- Assay type: cell-based
- MEASUREMENT CONDITIONS: Homo sapiens, K562, 72 h, K562 cells, 72 hours, Cell Titer Glo 2.0; read-out: K562 GI50
Counter-ions that a name gives are not always drawn.
QUANTITY MEASURED: GI50

Cc1c(O)c(-c2ncc3c(=O)n([C@H]4C[C@H]5COC[C@@H](C4)N5)ccc3n2)cc2cn(C)nc12; 1000 to 10000 nM
COc1c(-c2cc3ccn(C4CCNCC4)c(=O)c3cn2)cc2cn(C)nc2c1C; > 10000 nM
Cc1cn2cc(-c3ncc4c(=O)n([C@H]5CCN[C@H](C)C5)ccc4n3)cc(F)c2n1; 100 to 1000 nM
Cc1cn2cc(-c3cc(O)c4c(=O)n(C5CCNC5)cnc4c3)cc(C#N)c2n1 (stereo not shown); 1000 to 10000 nM
Cc1c(O)c(-c2ncc3c(=O)n([C@@H]4CCN[C@H](C)C4)ccc3n2)cc2cn(C)nc12; 100 to 1000 nM

### Prompt Give its GI50 value. Item: Cc1cn2nc(-c3cc(F)c4c(=O)n([C@@H]5CCN(C)C6(CC6)C5)ncc4c3)cc(C)c2n1
### Response 100 to 1000 nM

### Prompt Moving on to Cc1cn2nc(-c3ccc4c(=O)n(C5CCNCC5)ccc4c3)cc(Oc3cccc(F)c3)c2n1 [Compound 545, hydrochloride]
### Response < 100 nM

The reported numbers originate from patent US20250332173A1.
